- targetDesc: Sut1 (UniProt P53032)
- Sequence: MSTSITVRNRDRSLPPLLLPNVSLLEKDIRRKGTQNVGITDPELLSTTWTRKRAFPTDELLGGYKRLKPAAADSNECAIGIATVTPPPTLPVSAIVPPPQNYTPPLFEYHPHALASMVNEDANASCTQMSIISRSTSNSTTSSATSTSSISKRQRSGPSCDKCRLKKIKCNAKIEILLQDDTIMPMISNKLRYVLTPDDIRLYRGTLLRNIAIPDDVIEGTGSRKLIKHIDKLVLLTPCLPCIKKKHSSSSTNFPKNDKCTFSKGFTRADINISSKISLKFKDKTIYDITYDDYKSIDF
- measurementDescription: PBM E-score (8-mer binding enrichment) (E-score (-0.5 to 0.5)); higher = stronger / more preferred TF binding
- experimentalParameters: protein concentration: 200 nM; construct: GST-full length
The full ranking holds about 33,000 sequences; the median of “E-score (-0.5 to 0.5)” is about -0.017, and the highest 2% start at about 0.3. Many of the other results were omitted from the sample, so the highest values are more common in it than they were.
Hi, to clarify the labels: 1 covers PBM E-score from -0.09 upward, -1 covers anything below -0.09.

Quick check: does AAGAGATC have PBM E-score greater than or equal to -0.09?
-1

Quick check: does CATGTCTC have PBM E-score greater than or equal to -0.09?
1

Continuing:
Quick check: does CCGGAGGC have PBM E-score greater than or equal to -0.09?
1

Quick check: does ATACATTA have PBM E-score greater than or equal to -0.09?
1

Quick check: does CGCCGGAG have PBM E-score greater than or equal to -0.09?
1
